test system: Engineered strains of E. coli; format: cell-based; settings: after solvent exposure, vs positive control
property: change in expression of gene dhaK
Write the number on its own, no unit after it.

See these solved cases before continuing.
C=C(C)C	2.25
C=CC(C)CC (stereo not shown)	3.88
CCCCCC	3.83
CCC(C)CC	4.32
CC(C)=O	0.26

Observed change in expression of gene dhaK, Engineered strains of E. coli, `CC(C)CO` : 1.05

Observed change in expression of gene dhaK, Engineered strains of E. coli, `C1=CCCCC1` : 3.72

---

tested on: Engineered strains of E. coli; assay type: cell-based; conditions: after solvent exposure, vs positive control
property: change in expression of gene hslV
Write the number on its own, no unit after it.

See these solved cases before continuing.
C=CC(C)CC (stereo not shown)	3.66
CC(C)CO	0.88
CCCCCC	2.94
CC(C)=O	2.24

Documented change in expression of gene hslV of `C=C(C)C` : −1.15

Documented change in expression of gene hslV of `C1=CCCCC1` : 4.81

Documented change in expression of gene hslV of `CCC(C)CC` : 3.32

---

tested on: Engineered strains of E. coli; format: cell-based; settings: after solvent exposure, vs positive control
Returns: string. Value is 1 (yes) if measured change in expression of gene cspD is below 3, and 0 (no) if it is greater than or equal to it.

Use the examples below as a reference point.
CCCCCC [hexane]	1 (yes)
CC(C)=O [acetone]	1 (yes)
CC(C)CO [isobutanol]	1 (yes)
C=CC(C)CC (stereo not shown) [3-methyl-1-pentene]	0 (no)
C1=CCCCC1 [cyclohexene]	1 (yes)
CCC(C)CC [3-methylpentane]	1 (yes)

Next up:
change in expression of gene cspD strictly < 3 for this compound? C=C(C)C [isobutene]
0 (no)

---

Below, each of the compounds is paired with its reported change in expression of gene bssR value.
test system: Engineered strains of E. coli; assay type: cell-based; details: after solvent exposure, vs positive control

CCCCCC [hexane]	1.50 ± 0.44
C1=CCCCC1 [cyclohexene]	2.27 ± 0.44
CC(C)=O [acetone]	2.34 ± .46
CCC(C)CC [3-methylpentane]	1.81 ± 0.44

Documented change in expression of gene bssR of CC(C)CO [isobutanol] : −1.75 ± 1.29

Documented change in expression of gene bssR of C=CC(C)CC (stereo not shown) [3-methyl-1-pentene] : −0.03 ± 0.44

Documented change in expression of gene bssR of C=C(C)C [isobutene] : 3.93 ± 0.44

---

Below, each of the compounds is paired with its reported change in expression of gene narJ value.
system: Engineered strains of E. coli; assay type: cell-based; settings: after solvent exposure, vs positive control
Write the number on its own, no unit after it.

See these solved cases before continuing.
CC(C)=O	1.75
C=CC(C)CC (stereo not shown)	−0.67
CCC(C)CC	2.34
CC(C)CO	1.39
CCCCCC	2.26
C=C(C)C	2.32

Next:
Documented change in expression of gene narJ of `C1=CCCCC1` : 4.11

---

system: Engineered strains of E. coli; format: cell-based; conditions: after solvent exposure, vs positive control
Mark Condition not met for change in expression of gene potC values under -1, and Condition met for everything at or above.

Use the examples below as a reference point.
C1=CCCCC1	Condition met
CCCCCC	Condition not met

Quick check, change in expression of gene potC >= -1? `CC(C)=O`
Condition not met

---

test system: Engineered strains of E. coli; type: cell-based; settings: after solvent exposure, vs positive control
Returns: string. Value is 1 (yes) if measured change in expression of gene dhaL is below 3, and 0 (no) if it is greater than or equal to it.

Use the examples below as a reference point.
C1=CCCCC1 [cyclohexene]	1 (yes)
C=CC(C)CC (stereo not shown) [3-methyl-1-pentene]	0 (no)
CCC(C)CC [3-methylpentane]	0 (no)
CC(C)=O [acetone]	1 (yes)
CCCCCC [hexane]	1 (yes)

change in expression of gene dhaL strictly < 3 for this compound? C=C(C)C [isobutene]
1 (yes)

change in expression of gene dhaL strictly < 3 for this compound? CC(C)CO [isobutanol]
1 (yes)

---

test system: Engineered strains of E. coli; format: cell-based; details: after solvent exposure, vs positive control
Below, each of the compounds is paired with its reported change in expression of gene lipB value.
Write the number on its own, no unit after it.

See these solved cases before continuing.
CCC(C)CC	0.71
CC(C)=O	−1.11
C=C(C)C	−4.07

Documented change in expression of gene lipB of `CC(C)CO` : −2.33

Documented change in expression of gene lipB of `CCCCCC` : −0.05

Documented change in expression of gene lipB of `C1=CCCCC1` : 0.61

Documented change in expression of gene lipB of C=CC(C)CC (stereo not shown) : 1.26

---

system: Engineered strains of E. coli; assay type: cell-based; settings: after solvent exposure, vs positive control
Below, each of the compounds is paired with its reported change in expression of gene cspF value.

See these solved cases before continuing.
C=CC(C)CC (stereo not shown)	−2.49 ± 1.08
CCCCCC	−3.67 ± 1.04
C1=CCCCC1	−2.37 ± 1.04

Next:
Documented change in expression of gene cspF of `CC(C)CO` : −3.40 ± 1.07

---

system: Engineered strains of E. coli; type: cell-based; details: after solvent exposure, vs positive control
Mark 0 for change in expression of gene gadY values under -3, and 1 for everything at or above.

Use the examples below as a reference point.
C=C(C)C	1
CCCCCC	0
CC(C)=O	1
CC(C)CO	0
CCC(C)CC	0
C=CC(C)CC (stereo not shown)	0

Next up:
Quick check, change in expression of gene gadY >= -3? `C1=CCCCC1`
0

---

test system: Engineered strains of E. coli; assay type: cell-based; details: after solvent exposure, vs positive control
property: change in expression of gene gabP

C=C(C)C	−3.65 ± 1.55
C1=CCCCC1	1.19 ± 1.28
CCCCCC	−3.20 ± 1.33
CC(C)CO	−1.47 ± 1.32
CC(C)=O	−1.06 ± 1.42

Observed change in expression of gene gabP, Engineered strains of E. coli, C=CC(C)CC (stereo not shown) : −0.55 ± 1.33

Observed change in expression of gene gabP, Engineered strains of E. coli, `CCC(C)CC` : 1.14 ± 1.28

---

tested on: Engineered strains of E. coli; assay type: cell-based; conditions: after solvent exposure, vs positive control
property: change in expression of gene rpoS
Write the number on its own, no unit after it.

Documented change in expression of gene rpoS of C=CC(C)CC (stereo not shown) [3-methyl-1-pentene] : −0.17

Documented change in expression of gene rpoS of CC(C)=O [acetone] : 1.63

Documented change in expression of gene rpoS of C1=CCCCC1 [cyclohexene] : 0.22

---

tested on: Engineered strains of E. coli; type: cell-based; conditions: after solvent exposure, vs positive control
Returns: string. Value is satisfied if measured change in expression of gene fabD is below -1, and not satisfied if it is greater than or equal to it.

C1=CCCCC1	satisfied

Next up:
change in expression of gene fabD strictly < -1 for this compound? `CC(C)CO`
satisfied

---

tested on: Engineered strains of E. coli; format: cell-based; settings: after solvent exposure, vs positive control
Below, each of the molecules is paired with its reported change in expression of gene gabT value.
Write the number on its own, no unit after it.

CCC(C)CC	0.62

Documented change in expression of gene gabT of `CC(C)=O` : 0.34

Documented change in expression of gene gabT of `C=C(C)C` : −1.79

Documented change in expression of gene gabT of `C1=CCCCC1` : 0.31

---

Below, each of the compounds is paired with its reported number of genes with significant changes in expression value.
system: Engineered strains of E. coli; type: cell-based; settings: vs control, Bon Ferroni corrected p-value<0.05
Please answer using a numeric value trailed by its unit.

See these solved cases before continuing.
C1=CCCCC1	530 genes
C=C(C)C	1384 genes
CCC(C)CC	414 genes

Documented number of genes with significant changes in expression of `CC(C)=O` : 399 genes

Documented number of genes with significant changes in expression of `CCCCCC` : 535 genes

Documented number of genes with significant changes in expression of `CC(C)CO` : 831 genes

Documented number of genes with significant changes in expression of C=CC(C)CC (stereo not shown) : 540 genes

---

system: Engineered strains of E. coli; assay type: cell-based; settings: after solvent exposure, vs positive control
Below, each of the molecules is paired with its reported change in expression of gene coaA value.
Write the number on its own, no unit after it.

See these solved cases before continuing.
CCCCCC	−2.34
CC(C)CO	−3.09

Observed change in expression of gene coaA, Engineered strains of E. coli, C=CC(C)CC (stereo not shown) : −1.75

Observed change in expression of gene coaA, Engineered strains of E. coli, `C=C(C)C` : −4.22

Observed change in expression of gene coaA, Engineered strains of E. coli, `CCC(C)CC` : −1.35

Observed change in expression of gene coaA, Engineered strains of E. coli, `C1=CCCCC1` : −1.36

Observed change in expression of gene coaA, Engineered strains of E. coli, `CC(C)=O` : −3.10
